The measurements presented in this section are drawn from ChEMBL document CHEMBL1201862.

Would you mind telling me the reported GI50 of each entry?
test system: Malme-3M; assay: NCI tumour cell line growth inhibition, 48 h
The source made the active and inactive calls. No stated cut-off is given here; in the data, active = GI50 up to about 1.1 µM and inactive = higher.

Recorded GI50, per entry:
>>> df
                                   molecule        readout_value
0                C[Si](C)(C)C#C[I+]c1ccccc1     41 µM (inactive)
1          CN(C)/C=N/c1c2c(nc3ccccc13)CCCC2  > 100 µM (inactive)
2  CSc1ccc2c(cc1=O)[C@@H](NC(=O)c1ccc([N+](=O)[O-])cc1)CCc1cc(O)c(O)c(O)c1-2  > 100 µM (inactive)
3  CC1=NN(C(=O)CC(=O)Nc2cccc(Cl)c2)C(=O)C1/N=N/c1ccc(S(N)(=O)=O)cc1 (stereo unspecified)  > 100 µM (inactive)
4  N#CC[N+]1(Cc2ccccn2)CCCC1.O=S(=O)([O-])c1ccccc1  > 100 µM (inactive)

Query molecule follows.
Entry Nc1nc(Cl)c(N)c(NCC2(CO)CC(O)C2)n1 (stereo unspecified) — recorded GI50 = > 100 µM (inactive)
